# TEST_TARGET: T1, EphB4 (receptor of Table 1) (Mus musculus (Mouse), UniProt P54761 16-539)
# T1 sequence: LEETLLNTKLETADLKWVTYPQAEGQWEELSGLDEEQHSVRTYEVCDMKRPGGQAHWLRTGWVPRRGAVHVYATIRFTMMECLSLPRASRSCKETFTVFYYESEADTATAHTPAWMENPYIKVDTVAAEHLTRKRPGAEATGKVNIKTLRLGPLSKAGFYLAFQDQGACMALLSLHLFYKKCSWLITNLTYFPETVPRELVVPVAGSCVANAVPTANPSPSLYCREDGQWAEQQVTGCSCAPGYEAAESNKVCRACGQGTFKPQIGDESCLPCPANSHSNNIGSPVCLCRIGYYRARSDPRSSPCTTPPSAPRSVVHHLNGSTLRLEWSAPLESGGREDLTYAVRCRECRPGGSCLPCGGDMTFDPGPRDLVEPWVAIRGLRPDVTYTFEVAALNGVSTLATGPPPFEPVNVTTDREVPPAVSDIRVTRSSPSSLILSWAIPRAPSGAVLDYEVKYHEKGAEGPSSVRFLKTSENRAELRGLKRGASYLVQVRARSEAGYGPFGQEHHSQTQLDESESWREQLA
# PROCEDURE_TEXT: EphB receptor specificity panel (% binding)
QUANTITY: % Binding (%)
Report only the number, with the unit % understood.

QUERY: What % Binding value was documented for this binder, TNYLFSPNGPIA (Panned on EphB4; non-biotinylated form) [TNYLFSPNGPIA peptide (SEQ ID NO:24)] ?
RESULT: 100

QUERY: Data request, read-out % Binding, for AHTFPYPHPKPH (Panned on EphB1) [AHTFPYPHPKPH peptide (SEQ ID NO:3)]
RESULT: 1

QUERY: Please give the measured % Binding for this binder: LPHGPVAAAWDA (Panned on EphB4) [LPHGPVAAAWDA peptide (SEQ ID NO:26)]
RESULT: 100

QUERY: % Binding lookup needed for FSPQGPAARNFA (Panned on EphB4) [FSPQGPAARNFA peptide (SEQ ID NO:25)] , thanks.
RESULT: 100

QUERY: Fill in: % Binding of SHWPVLPFAHWQ (Panned on EphB2) [SHWPVLPFAHWQ peptide (SEQ ID NO:12)] is ___
RESULT: 6

QUERY: // returns reported % Binding for input THWCHLLNCAAL (Panned on EphB2) [THWCHLLNCAAL peptide (SEQ ID NO:6)]
RESULT: 20

QUERY: Entry DHWRVSPYSLLY (Panned on EphB2) [DHWRVSPYSLLY peptide (SEQ ID NO:13)] : reported % Binding = ?
RESULT: 0

QUERY: Name the reported % Binding value associated with the binder DHWPLLPYALAH (Panned on EphB2) [… peptide (SEQ ID NO:16)]
RESULT: 0

QUERY: Item under review: EWYMKFPPEHYF (Panned on EphB4) [EWYMKFPPEHYF peptide (SEQ ID NO:19)] . Reported % Binding?
RESULT: 100

QUERY: Could you share which % Binding value was measured for NHWPTQPYAIPI (Panned on EphB2) [NHWPTQPYAIPI peptide (SEQ ID NO:15)] ?
RESULT: 22
